The measurements presented in this section are drawn from the NIST ThermoML archive (doi:10.1021/je900757k).

assay: isobaric coefficient of expansion; conditions: 348.15 K; 50000 kPa; Liquid; DSC
// reported isobaric coefficient of expansion for each item listed
assay-endpoint: isobaric coefficient of expansion

molecule="ClC(Cl)(Cl)Cl [tetrachloromethane]" result="0.000969 1/K"
molecule="CCCCCCCCCCCCCC [tetradecane]" result="0.000711 1/K"
molecule="CCCCCCCCCC [decane]" result="0.000795 1/K"
molecule="CCCCCCCCCCCCCCC [pentadecane]" result="0.000705 1/K"
molecule="CCCCCCCCCCC [undecane]" result="0.000769 1/K"
molecule="CCCCCCCCC [nonane]" result="0.000823 1/K"
molecule="CCCCCCCCCCCC [dodecane]" result="0.000753 1/K"
molecule="c1ccccc1 [benzene]" result="0.000963 1/K"
molecule="CCCCCCCCCCCCC [tridecane]" result="0.000723 1/K"

----------
test: isobaric coefficient of expansion; details: 298.15 K; 10000 kPa; Liquid; DSC
// reported isobaric coefficient of expansion for each item listed
assay-endpoint: isobaric coefficient of expansion

given_smiles=CCCCCCCCCC assay_endpoint="isobaric coefficient of expansion" result="0.000975 1/K"
given_smiles=CCCCCCCCCCCCCC assay_endpoint="isobaric coefficient of expansion" result="0.000881 1/K"
given_smiles=ClC(Cl)(Cl)Cl assay_endpoint="isobaric coefficient of expansion" result="0.00116 1/K"
given_smiles=CCCCCCCCCCC assay_endpoint="isobaric coefficient of expansion" result="0.000937 1/K"
given_smiles=c1ccccc1 assay_endpoint="isobaric coefficient of expansion" result="0.00116 1/K"
given_smiles=CCCCCCCCCCCC assay_endpoint="isobaric coefficient of expansion" result="0.000916 1/K"
given_smiles=CCCCCCCCCCCCC assay_endpoint="isobaric coefficient of expansion" result="0.000868 1/K"
given_smiles=CCCCCCCCC assay_endpoint="isobaric coefficient of expansion" result="0.00101 1/K"
given_smiles=CCCCCCCCCCCCCCC assay_endpoint="isobaric coefficient of expansion" result="0.000871 1/K"

----------
experiment: isobaric coefficient of expansion; settings: 288.15 K; 35000 kPa; Liquid; DSC
// reported isobaric coefficient of expansion for each item listed
assay-endpoint: isobaric coefficient of expansion

given_smiles=CCCCCCCCC result="0.000875 1/K"
given_smiles=CCCCCCCCCC result="0.000846 1/K"
given_smiles=CCCCCCCCCCCC result="0.000806 1/K"
given_smiles=CCCCCCCCCCC result="0.00082 1/K"
given_smiles=CCCCCCCCCCCCC result="0.000777 1/K"
given_smiles=ClC(Cl)(Cl)Cl result="0.00101 1/K"

----------
test: isobaric coefficient of expansion; conditions: 278.15 K; 55000 kPa; Liquid; DSC
// reported isobaric coefficient of expansion for each item listed
assay-endpoint: isobaric coefficient of expansion

given_smiles=CCCCCCCCCC result="0.000784 1/K"
given_smiles=ClC(Cl)(Cl)Cl result="0.000936 1/K"
given_smiles=CCCCCCCCCCCC result="0.000751 1/K"
given_smiles=CCCCCCCCCCC result="0.000765 1/K"
given_smiles=CCCCCCCCC result="0.000803 1/K"

----------
test: isobaric coefficient of expansion; settings: 348.15 K; 55000 kPa; Liquid; DSC
assay-endpoint: isobaric coefficient of expansion

compound="CCCCCCCCCCC [undecane]" assay_endpoint="isobaric coefficient of expansion" result="0.000752 1/K"
compound="CCCCCCCCCCCCCC [tetradecane]" assay_endpoint="isobaric coefficient of expansion" result="0.000699 1/K"
compound="CCCCCCCCCCCCC [tridecane]" assay_endpoint="isobaric coefficient of expansion" result="0.000709 1/K"
compound="ClC(Cl)(Cl)Cl [tetrachloromethane]" assay_endpoint="isobaric coefficient of expansion" result="0.000947 1/K"
compound="CCCCCCCCCCCC [dodecane]" assay_endpoint="isobaric coefficient of expansion" result="0.000737 1/K"
compound="CCCCCCCCCC [decane]" assay_endpoint="isobaric coefficient of expansion" result="0.000778 1/K"
compound="c1ccccc1 [benzene]" assay_endpoint="isobaric coefficient of expansion" result="0.000941 1/K"
compound="CCCCCCCCCCCCCCC [pentadecane]" assay_endpoint="isobaric coefficient of expansion" result="0.000694 1/K"
compound="CCCCCCCCC [nonane]" assay_endpoint="isobaric coefficient of expansion" result="0.000806 1/K"

----------
assay: isobaric coefficient of expansion; details: 338.15 K; 5000 kPa; Liquid; DSC
// reported isobaric coefficient of expansion for each item listed
assay-endpoint: isobaric coefficient of expansion

given_smiles=CCCCCCCCC result="0.00113 1/K"
given_smiles=CCCCCCCCCCCCC result="0.000958 1/K"
given_smiles=CCCCCCCCCCCCCCC result="0.000914 1/K"
given_smiles=CCCCCCCCCCCCCC result="0.000931 1/K"
given_smiles=CCCCCCCCCCC result="0.00102 1/K"
given_smiles=CCCCCCCCCCCC result="0.000989 1/K"
given_smiles=ClC(Cl)(Cl)Cl result="0.0013 1/K"
given_smiles=c1ccccc1 result="0.00129 1/K"
given_smiles=CCCCCCCCCC result="0.00107 1/K"

----------
experiment: isobaric coefficient of expansion; settings: 298.15 K; 55000 kPa; Liquid; DSC
// reported isobaric coefficient of expansion for each item listed
assay-endpoint: isobaric coefficient of expansion

given_smiles=c1ccccc1 result="0.000954 1/K"
given_smiles=CCCCCCCCCCCC result="0.000744 1/K"
given_smiles=CCCCCCCCCCCCCCC result="0.000717 1/K"
given_smiles=CCCCCCCCC result="0.000803 1/K"
given_smiles=CCCCCCCCCC result="0.00078 1/K"
given_smiles=CCCCCCCCCCC result="0.000759 1/K"
given_smiles=ClC(Cl)(Cl)Cl result="0.000935 1/K"
given_smiles=CCCCCCCCCCCCC result="0.000725 1/K"
given_smiles=CCCCCCCCCCCCCC result="0.000725 1/K"

----------
// reported isobaric coefficient of expansion for each item listed
experiment: isobaric coefficient of expansion; conditions: 278.15 K; 45000 kPa; Liquid; DSC
assay-endpoint: isobaric coefficient of expansion

molecule="CCCCCCCCCCCC [dodecane]" result="0.000772 1/K"
molecule="ClC(Cl)(Cl)Cl [tetrachloromethane]" result="0.000959 1/K"
molecule="CCCCCCCCCCC [undecane]" result="0.000785 1/K"
molecule="CCCCCCCCC [nonane]" result="0.000827 1/K"
molecule="CCCCCCCCCC [decane]" result="0.000807 1/K"

----------
assay: isobaric coefficient of expansion; settings: 278.15 K; 10000 kPa; Liquid; DSC
// reported isobaric coefficient of expansion for each item listed
assay-endpoint: isobaric coefficient of expansion

given_smiles=ClC(Cl)(Cl)Cl result="0.00112 1/K"
given_smiles=CCCCCCCCC result="0.000977 1/K"
given_smiles=CCCCCCCCCCC result="0.000913 1/K"
given_smiles=CCCCCCCCCC result="0.000945 1/K"
given_smiles=CCCCCCCCCCCC result="0.000896 1/K"

----------
// reported isobaric coefficient of expansion for each item listed
test: isobaric coefficient of expansion; conditions: 278.15 K; 5000 kPa; Liquid; DSC
assay-endpoint: isobaric coefficient of expansion

given_smiles=CCCCCCCCCC result="0.000969 1/K"
given_smiles=CCCCCCCCCCCC result="0.000913 1/K"
given_smiles=ClC(Cl)(Cl)Cl result="0.00114 1/K"
given_smiles=CCCCCCCCCCC result="0.000936 1/K"
given_smiles=CCCCCCCCC result="0.001 1/K"

----------
// reported isobaric coefficient of expansion for each item listed
assay: isobaric coefficient of expansion; conditions: 288.15 K; 55000 kPa; Liquid; DSC
assay-endpoint: isobaric coefficient of expansion

compound="CCCCCCCCCCCCC [tridecane]" assay_endpoint="isobaric coefficient of expansion" result="0.000722 1/K"
compound="ClC(Cl)(Cl)Cl [tetrachloromethane]" assay_endpoint="isobaric coefficient of expansion" result="0.00093 1/K"
compound="CCCCCCCCCCCC [dodecane]" assay_endpoint="isobaric coefficient of expansion" result="0.000745 1/K"
compound="CCCCCCCCCCC [undecane]" assay_endpoint="isobaric coefficient of expansion" result="0.000756 1/K"
compound="CCCCCCCCC [nonane]" assay_endpoint="isobaric coefficient of expansion" result="0.000799 1/K"
compound="CCCCCCCCCC [decane]" assay_endpoint="isobaric coefficient of expansion" result="0.00078 1/K"

----------
// reported isobaric coefficient of expansion for each item listed
assay: isobaric coefficient of expansion; settings: 298.15 K; 40000 kPa; Liquid; DSC
assay-endpoint: isobaric coefficient of expansion

given_smiles=CCCCCCCCCCC assay_endpoint="isobaric coefficient of expansion" result="0.000805 1/K"
given_smiles=CCCCCCCCCCCCC assay_endpoint="isobaric coefficient of expansion" result="0.000771 1/K"
given_smiles=CCCCCCCCCCCCCC assay_endpoint="isobaric coefficient of expansion" result="0.000764 1/K"
given_smiles=CCCCCCCCCC assay_endpoint="isobaric coefficient of expansion" result="0.000829 1/K"
given_smiles=CCCCCCCCCCCC assay_endpoint="isobaric coefficient of expansion" result="0.000788 1/K"
given_smiles=CCCCCCCCCCCCCCC assay_endpoint="isobaric coefficient of expansion" result="0.000756 1/K"
given_smiles=ClC(Cl)(Cl)Cl assay_endpoint="isobaric coefficient of expansion" result="0.000996 1/K"
given_smiles=c1ccccc1 assay_endpoint="isobaric coefficient of expansion" result="0.00101 1/K"
given_smiles=CCCCCCCCC assay_endpoint="isobaric coefficient of expansion" result="0.000856 1/K"
